// Ki lookup, one value per entry
Target: UniProt:Q9NWZ3
Sequence (Q9NWZ3 whole entry): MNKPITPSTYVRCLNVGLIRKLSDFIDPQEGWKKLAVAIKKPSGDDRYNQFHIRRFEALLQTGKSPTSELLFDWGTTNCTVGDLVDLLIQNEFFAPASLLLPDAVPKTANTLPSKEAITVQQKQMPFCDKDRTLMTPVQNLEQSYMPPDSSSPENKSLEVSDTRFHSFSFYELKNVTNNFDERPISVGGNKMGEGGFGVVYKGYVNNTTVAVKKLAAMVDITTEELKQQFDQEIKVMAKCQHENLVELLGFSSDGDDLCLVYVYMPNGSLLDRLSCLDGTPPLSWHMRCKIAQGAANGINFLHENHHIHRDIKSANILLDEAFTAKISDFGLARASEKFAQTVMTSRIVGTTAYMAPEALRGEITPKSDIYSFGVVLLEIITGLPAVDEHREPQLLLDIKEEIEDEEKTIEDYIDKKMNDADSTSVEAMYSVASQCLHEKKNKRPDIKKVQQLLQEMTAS
Assay: IRAK4 enzymatic assay (Transcreener fluorescence polarization, ADP detection)
Details: recombinant full-length IRAK4; 125 uM ATP; 90 min
Your answer should be a plain number; it is taken to be in nM.

Answered examples (4):
Challenge: // Input: Cc1cnc2c(C(=O)Nc3cc4c(nc3N3CCN(CC(N)=O)CC3)O[C@](C)(CO)C4)cnn2c1 (single isomer, unassigned) [Example 15] . Output its Ki only.
Response given: 6.6

Challenge: // Input: C[C@]1(CO)Cc2cc(NC(=O)c3cnn4cccnc34)c(N3CCN(CC(F)F)CC3)nc2O1 (stereo in doubt) [Example 21] . Output its Ki only.
Response given: 13

Challenge: // Input: CC1(C)Cc2cc(NC(=O)c3cnn4cccnc34)c(OCC3CC3)nc2O1 [Example 17] . Output its Ki only.
Response given: 6.4

Challenge: // Input: C[C@@]1(CO)Cc2cc(NC(=O)c3cnn4cccnc34)c(N3CCN(CC(F)F)CC3)nc2O1 (stereo in doubt) [Example 20] . Output its Ki only.
Response given: 9.1

Now for another entry.
Challenge: // Input: CC1(C)Cc2cc(NC(=O)c3cnn4cccnc34)c(N3CCN(CC(F)F)CC3)nc2O1 [Example 9] . Output its Ki only.
Response given: 7.6
